Test: Pharmacokinetics in mouse plasma
Format: in vivo
Conditions: female, BALB/c, ip, 20 mg/kg
READOUT NAME: MRT last (h)
Kindly answer with a numeric value in h, unit omitted.

Return the recorded MRT last value; entry: CCCCCCCc1cc(O)c2ccccc2[n+]1[O-] [HQNO, 2-Heptyl-4-hydroxyquinoline N-oxide]
1.56

====

Assay: Pharmacokinetics in mouse plasma
Assay type: in vivo
Conditions: female, BALB/c, ip, 20 mg/kg
READOUT NAME: MRT inf (h)
Please reply with the bare figure in h and do not write the unit itself.

Find the measured MRT inf of CCCCCCCc1cc(O)c2ccccc2[n+]1[O-] [HQNO, 2-Heptyl-4-hydroxyquinoline N-oxide] and report it.
1.62

Just for reference, paper PMC9929485 is where these values come from.
